Tested on: PRMT1 (protein arginine N-methyltransferase 1)
Test: small molecules binding arginine methyltransferase PRMT1 – biochemical, small-molecule microarray, 635 nm fluorescence, primary screen (AID 1088);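 also: binding of Prmt1 protein to compounds spotted on small-molecule microarray slides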
Details: higher = more signal
Quick list: composite z-score per entry.
measured-attribute: composite z-score

compound	measured-attribute	measured-value
O=C1N(CCS(=O)(=O)c2ccccc2)c2ccccc2C[C@]12N=C(c1ccc(OCCCO)cc1)O[C@@H]2c1ccccc1	composite z-score	1.48
Cc1ccc(F)cc1S(=O)(=O)N[C@H]1CCN(Cc2ccc(OC(C)C)cc2)C1	composite z-score	1.48
COc1ccc([Si](C)(C)[C@H]2[C@H](CC(=O)N3Cc4ccccc4C[C@H]3CO)O[C@@]3(C(=O)N(C)c4c(Br)cc(C)cc43)[C@@H]2C)cc1	composite z-score	1.54
O=C1[C@H]2C=C(I)[C@H](C[C@@H]2OCCCCCCO)[C@@]12CO2	composite z-score	-0.134
COC(=O)C1(Cc2ccccc2)C=C2C(=C(C)C(=O)C2C)CN1 (stereo not drawn)	composite z-score	-0.467
CN(C)CCCNC(=O)[C@@H]1c2ccccc2C(=O)N(Cc2ccccc2C(F)(F)F)[C@H]1c1ccc(CO)cc1	composite z-score	0.986
COCCOC(=O)N1C(=O)[C@@]2(c3cc(C#CCC(C(=O)OC)C(=O)OC)ccc31)[C@H](C(N)=O)[C@H]1C(=O)O[C@H](c3ccccc3)[C@H](c3ccccc3)N1[C@@H]2c1ccc(O)cc1	composite z-score	1.54
O=C1C2C=CC(C(O)c3ccc([N+](=O)[O-])cc3)N(Nc3ccccc3F)C2C(=O)N1c1ccccc1 (stereo not drawn)	composite z-score	0.67

---

Assay: blockers of DNA damage checkpoint Chk1 activation – imaging, HeLa, hydroxyurea, phospho-Chk1 nuclear intensity, primary screen (AID 1187); also: test concentration not given here
Settings: hydroxyurea-induced phospho-Chk1 immunofluorescence imaging, higher = more signal
Range-based classes on measured z-score: L = under -0.3, M = from -0.3 up to 0.3, H = 0.3 and over

compound	cat
CCC(CC)C(O)C1C=CC2C(=O)N(c3ccccc3)C(=O)C2N1Nc1ccccc1F (stereo unspecified)	M
COc1ccc([Si](C)(C)[C@H]2[C@H](CCO)O[C@@]3(C(=O)N(Cc4cccc(N(C=O)c5ccccc5)c4)c4ccccc43)[C@@H]2C)cc1	L
CCOC(=O)C1=CC[C@@H](c2ccc(OC)cc2)N(S(=O)(=O)c2ccc(C)cc2)[C@H]1CC	L
O=C1N(Cc2ccccc2)c2ccccc2C[C@@]12COC(c1ccc(OCCCO)cc1)=N2	H
O=C1O[C@@H](c2ccccc2)[C@@H](c2ccccc2)N2[C@@H](c3ccccc3OCCO)[C@]3(C(=O)Nc4ccc(C#CCCO)cc43)[C@@H](C(=O)NC[C@H](O)c3ccccc3)[C@H]12	M
COc1cc(OC)c(C(O)C2C=CC3C(=O)N(c4ccccc4)C(=O)C3N2Nc2ccc(C(C)C)cc2)cc1Br (stereo unspecified)	L
CCN(CC)c1ccc(N2CC=CC34O[C@@H]5C=CCCOC(=O)C5[C@H]3C(=O)N(C(C)CO)[C@@H]4C2=O)cc1 (stereo partly specified)	H
O=C(NCc1ccccc1)[C@@H]1c2ccccc2C(=O)N(Cc2cc(C(F)(F)F)cc(C(F)(F)F)c2)[C@H]1c1ccc(CO)cc1	M
COc1ccc(C(O)C2C=CC3C(=O)N(c4ccccc4)C(=O)C3N2Nc2ccc(C#N)cc2)cc1OCc1ccccc1 (stereo unspecified)	L
[N-]=[N+]=Nc1ccccc1C[C@@]1(C(=O)NCC(O)CO)N=C(c2ccc(OCCCO)cc2)O[C@@H]1c1ccccc1 (stereo partly specified)	M
CCCN1C(=O)[C@]2(CCC(=O)OC(C)(C)C)N=C(c3ccc(OCCCO)cc3)O[C@@H]2c2ccccc21	L
CC1CC/C=C\[C@H]2OC34C=CCN(CCN5CCOCC5)C(=O)[C@H]3N(CCCO)C(=O)[C@@H]4C2C(=O)O1 (stereo partly specified)	H
C=C(CCCC)C(=O)CC[C@@H](OC(=O)c1ccccc1-c1ccccc1C(=O)O)c1ccccc1OCCO	H
C=CC1c2cc(O)c(OC)cc2CCN1C (stereo unspecified)	H

Provenance of the data: PubChem BioAssay
